Hello, the source for this data is patent US20250281649A1, in case you need it.

Biological target: ALDH1A3 (Homo sapiens)
Construct: His-tag; made in house; host or cells: bacterial cells
Assay: Fluorescence of probes in buffer and in complex with the isoenzymes (Tecan SPARK)
Format: binding
Details: in complex with the three isoenzymes, in particular ALDH1A3
value_kind: increase of fluorescence in complex with the isoenzymes

>  <item_smiles>
COc1cc(/C=C/C(O)=C/C(=O)/C=C/c2ccc(N(C)C)cc2)ccc1OCc1cn(CCOc2ccc(C=O)cc2)nn1

>  <subject_of_test>
ALDH1A3 (Homo sapiens)

>  <test_result>
no good result

$$$$
>  <item_smiles>
CCOP(=O)(OCC)Oc1ccc(/C=C/C(=O)/C=C(O)/C=C/c2ccc(OCc3cn(CCOc4ccc(C=O)cc4)nn3)c(OC)c2)cc1OC

>  <subject_of_test>
ALDH1A3 (Homo sapiens)

>  <test_result>
no good result

$$$$

* * *

Molecular target: ALDH1A3 (Homo sapiens)
Construct: His-tag; made in house; host or cells: bacterial cells
Assay: IC50 evaluation, NADH formation at 340 nm (Tecan SUNRISE)
Format: biochemical
Conditions: ALDH1A3; 20 mM acetaldehyde, 500 μM NAD+, 15% DMSO, 2.7 μM isoenzyme; read-out: IC50
Reported IC50 by item:
State the value with its unit after it.

>  <item_smiles>
CCOC(=O)Cn1cc(COc2ccc(C=CC(=O)C=C(O)C=Cc3ccc(OP(=O)(OCC)OCC)c(OC)c3)cc2OC)nn1

>  <test_result>
158 µM

$$$$

Input line: IC50 lookup needed for `COc1cc(/C=C/C(O)=C/C(=O)/C=C/c2ccc(N(C)C)cc2)ccc1OCc1cn(CCOc2ccc(C=O)cc2)nn1` , thanks.
Output line: 5.1 µM

Input line: Which measured IC50 value corresponds to `COc1cc(/C=C/C(=O)/C=C(O)/C=C/c2ccc(OCc3cn(CCOc4ccc(C=O)cc4)nn3)c(OC)c2)ccc1O` ?
Output line: 1.5 µM

Input line: Recorded IC50 of `CCOC(=O)Cn1cc(COc2ccc(/C=C/C(O)=C/C(=O)/C=C/c3ccc(O)c(OC)c3)cc2OC)nn1` , please.
Output line: 14.5 µM

* * *

Target: ALDH1A3 (Homo sapiens)
Construct: His-tag; made in house; host or cells: bacterial cells
Sequence (P47895 1-512): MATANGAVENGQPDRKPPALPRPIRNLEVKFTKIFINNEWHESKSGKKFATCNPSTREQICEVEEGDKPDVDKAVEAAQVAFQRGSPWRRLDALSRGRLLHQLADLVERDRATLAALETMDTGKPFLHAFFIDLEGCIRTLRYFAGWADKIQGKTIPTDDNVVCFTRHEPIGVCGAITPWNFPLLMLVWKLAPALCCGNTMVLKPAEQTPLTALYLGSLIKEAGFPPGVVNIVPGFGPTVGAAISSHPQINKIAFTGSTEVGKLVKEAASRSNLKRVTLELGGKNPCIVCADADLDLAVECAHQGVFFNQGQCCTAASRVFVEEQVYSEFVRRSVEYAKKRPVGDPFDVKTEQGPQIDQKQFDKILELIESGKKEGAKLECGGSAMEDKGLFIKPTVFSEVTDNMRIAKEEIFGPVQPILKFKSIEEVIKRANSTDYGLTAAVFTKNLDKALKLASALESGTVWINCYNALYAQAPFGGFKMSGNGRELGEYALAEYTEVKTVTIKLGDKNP
Test: IC50 evaluation, NADH formation at 340 nm (Tecan SUNRISE)
Format: biochemical
value_kind: IC50

Input line: Tell me reported IC50 for CCOP(=O)(OCC)Oc1ccc(/C=C/C(=O)/C=C(O)/C=C/c2ccc(OCc3cn(CCOc4ccc(C=O)cc4)nn3)c(OC)c2)cc1OC [Compound 16] , tested with ALDH1A3 (Homo sapiens).
Output line: 8.5 µM

* * *

Biological target: ALDH1A3 (Homo sapiens)
Sequence (P47895 1-512): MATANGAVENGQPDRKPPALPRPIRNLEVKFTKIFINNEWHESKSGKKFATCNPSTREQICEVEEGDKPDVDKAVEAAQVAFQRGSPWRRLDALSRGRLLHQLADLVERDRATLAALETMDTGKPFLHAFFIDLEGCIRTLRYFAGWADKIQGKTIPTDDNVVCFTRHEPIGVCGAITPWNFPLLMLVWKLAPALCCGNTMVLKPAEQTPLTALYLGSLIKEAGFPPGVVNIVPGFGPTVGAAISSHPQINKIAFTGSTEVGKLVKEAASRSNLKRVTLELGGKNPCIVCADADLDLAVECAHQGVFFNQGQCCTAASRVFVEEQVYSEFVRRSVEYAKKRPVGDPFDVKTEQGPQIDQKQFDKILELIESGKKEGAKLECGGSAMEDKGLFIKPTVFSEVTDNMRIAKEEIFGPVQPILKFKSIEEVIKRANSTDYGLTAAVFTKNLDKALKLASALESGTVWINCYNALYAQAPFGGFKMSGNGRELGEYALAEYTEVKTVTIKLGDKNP
value_kind: pKi
# pKi is unitless: minus log10 of the molar concentration; print number only

Input line: # get_value(readout='pKi', item= COc1cc(/C=C/C(=O)/C=C(O)/C=C/c2ccc(OCc3cn(CCOc4ccc(C=O)cc4)nn3)c(OC)c2)ccc1O [Compound 13] )
Output line: 6.05

* * *

Biological target: ALDH1A1 (Homo sapiens)
Sequence (P00352 1-501): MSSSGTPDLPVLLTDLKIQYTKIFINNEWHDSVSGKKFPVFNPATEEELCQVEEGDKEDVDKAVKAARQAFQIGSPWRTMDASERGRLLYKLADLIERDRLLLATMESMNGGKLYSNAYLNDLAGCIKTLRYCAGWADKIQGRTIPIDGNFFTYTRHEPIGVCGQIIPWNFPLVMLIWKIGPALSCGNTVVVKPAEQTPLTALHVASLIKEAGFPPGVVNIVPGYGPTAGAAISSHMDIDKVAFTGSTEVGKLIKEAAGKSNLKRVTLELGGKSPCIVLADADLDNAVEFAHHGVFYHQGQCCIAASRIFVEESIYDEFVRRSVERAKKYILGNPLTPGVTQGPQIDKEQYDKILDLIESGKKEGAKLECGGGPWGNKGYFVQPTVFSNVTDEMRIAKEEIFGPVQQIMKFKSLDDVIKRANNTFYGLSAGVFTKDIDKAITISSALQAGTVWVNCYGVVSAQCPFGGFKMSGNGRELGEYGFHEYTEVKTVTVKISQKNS
Documented pKd across a set of molecules
// field semantics: pKd = negative decimal log of concentration (mol/L)

>  <molecule>
COc1cc(/C=C/C(=O)/C=C(O)/C=C/c2ccc(OCc3cn(CCOc4ccc(C=O)cc4)nn3)c(OC)c2)ccc1O [Compound 13]

>  <subject_of_test>
ALDH1A1 (Homo sapiens)

>  <test_result>
4.51

$$$$
>  <molecule>
CCOC(=O)Cn1cc(COc2ccc(C=CC(=O)C=C(O)C=Cc3ccc(OP(=O)(OCC)OCC)c(OC)c3)cc2OC)nn1 [Compound 17]

>  <subject_of_test>
ALDH1A1 (Homo sapiens)

>  <test_result>
4.74

$$$$

With those in mind, consider the next molecule.
Input line: Name the reported pKd value associated with the molecule COc1cc(/C=C/C(O)=C/C(=O)/C=C/c2ccc(N(C)C)cc2)ccc1OCc1cn(CCOc2ccc(C=O)cc2)nn1 [Compound 15]
Output line: 4.62

* * *

Molecular target: ALDH1A2 (Homo sapiens, UniProt O94788)
Construct: His-tag; made in house; host or cells: bacterial cells
Sequence (O94788 whole entry): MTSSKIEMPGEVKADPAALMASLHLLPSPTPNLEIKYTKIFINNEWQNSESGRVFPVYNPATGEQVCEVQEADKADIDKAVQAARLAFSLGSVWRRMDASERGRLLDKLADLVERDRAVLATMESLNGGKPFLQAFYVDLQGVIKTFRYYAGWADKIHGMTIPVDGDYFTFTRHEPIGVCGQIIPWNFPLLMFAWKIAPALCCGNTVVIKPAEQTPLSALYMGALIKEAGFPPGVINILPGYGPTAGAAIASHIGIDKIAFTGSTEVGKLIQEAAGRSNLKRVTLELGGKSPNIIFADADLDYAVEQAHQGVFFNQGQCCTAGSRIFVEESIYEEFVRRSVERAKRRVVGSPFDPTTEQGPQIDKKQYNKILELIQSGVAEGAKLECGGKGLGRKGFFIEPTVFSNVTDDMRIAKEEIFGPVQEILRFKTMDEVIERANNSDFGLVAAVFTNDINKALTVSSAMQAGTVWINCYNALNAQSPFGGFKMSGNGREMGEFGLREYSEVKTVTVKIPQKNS
Experiment: IC50 evaluation, NADH formation at 340 nm (Tecan SUNRISE)
Assay type: biochemical
Details: 20 mM acetaldehyde, 500 μM NAD+, 15% DMSO, 2.7 μM isoenzyme, read-out: IC50
Description: A common protocol to express and purify all three members of the ALDHIA subfamily has been optimized. […] To evaluate the purity and homogeneity of the protein, after each purification step, eluted d fractions were analyzed by SDS-PAGE and the protein quantification was always determined by Bradford protein assay. […]
value_kind: pIC50
Here pIC50 is given on a logarithmic scale as minus log10 of the concentration in mol/L.

>  <item_smiles>
COc1cc(/C=C/C(=O)/C=C(O)/C=C/c2ccc(OCc3cn(CCOc4ccc(C=O)cc4)nn3)c(OC)c2)ccc1O

>  <subject_of_test>
ALDH1A2 (Homo sapiens, UniProt O94788)

>  <pIC50>
3.88

$$$$

Then this molecule:
Input line: Param item = `CCOC(=O)Cn1cc(COc2ccc(/C=C/C(O)=C/C(=O)/C=C/c3ccc(O)c(OC)c3)cc2OC)nn1` ; retrieve measured pIC50.
Output line: 4.03

* * *

Target: ALDH1A3 (Homo sapiens, UniProt P47895)
Construct: His-tag; made in house; host or cells: bacterial cells
Sequence (P47895 1-512): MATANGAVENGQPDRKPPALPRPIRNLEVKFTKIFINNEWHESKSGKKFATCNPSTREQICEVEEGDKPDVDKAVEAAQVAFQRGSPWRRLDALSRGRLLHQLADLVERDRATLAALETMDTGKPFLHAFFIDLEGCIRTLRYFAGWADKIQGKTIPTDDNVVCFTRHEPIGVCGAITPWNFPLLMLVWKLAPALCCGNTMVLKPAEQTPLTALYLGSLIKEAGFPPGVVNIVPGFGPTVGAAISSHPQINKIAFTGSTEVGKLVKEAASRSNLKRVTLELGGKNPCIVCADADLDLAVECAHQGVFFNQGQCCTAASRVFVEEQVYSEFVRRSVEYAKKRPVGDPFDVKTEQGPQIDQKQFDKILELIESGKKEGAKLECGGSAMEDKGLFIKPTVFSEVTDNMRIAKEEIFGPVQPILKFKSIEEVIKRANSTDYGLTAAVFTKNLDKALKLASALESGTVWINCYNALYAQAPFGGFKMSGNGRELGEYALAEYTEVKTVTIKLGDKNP
Assay: KD evaluation by probe fluorescence (Tecan SPARK)
Type: binding
Conditions: ALDH1A3; probe fixed at 10 μM, isoenzyme 100 μM to 1 μM; read-out: KD
value_kind: Kd
Answer by giving the amount and then stating its unit.

Example entries begin here.
>  <item_smiles>
CCOC(=O)Cn1cc(COc2ccc(C=CC(=O)C=C(O)C=Cc3ccc(OP(=O)(OCC)OCC)c(OC)c3)cc2OC)nn1

>  <value_kind>
Kd

>  <test_result>
14.9 µM

$$$$
>  <item_smiles>
CCOC(=O)Cn1cc(COc2ccc(/C=C/C(O)=C/C(=O)/C=C/c3ccc(O)c(OC)c3)cc2OC)nn1

>  <value_kind>
Kd

>  <test_result>
84.3 µM

$$$$
>  <item_smiles>
COc1cc(/C=C/C(O)=C/C(=O)/C=C/c2ccc(N(C)C)cc2)ccc1OCc1cn(CCOc2ccc(C=O)cc2)nn1

>  <value_kind>
Kd

>  <test_result>
20.4 µM

$$$$

Okay, next one:
Input line: Could you share which Kd value was measured for `COc1cc(/C=C/C(=O)/C=C(O)/C=C/c2ccc(OCc3cn(CCOc4ccc(C=O)cc4)nn3)c(OC)c2)ccc1O` ?
Output line: 38.2 µM
